Sourced from PubChem BioAssay (NCI)

Tested on: UACC-257 melanoma
Assay: NCI tumour cell line growth inhibition, 48 h
Items are presented alongside their recorded GI50.

Value lookup for GI50; key = `O=C(Nc1ccc(F)cc1)Nc1ccc(Cl)c([N+](=O)[O-])c1`
2.73 µM

Further cases:
Value lookup for GI50; key = `Cc1nc2sccn2c1-c1csc(Nc2ccccc2Cl)n1`
3.69 µM

Value lookup for GI50; key = `C[C@@H](Oc1cc(-n2cnc3ccc(CN4CCN(C)CC4)cc32)sc1C(N)=O)c1ccccc1C(F)(F)F`
2.03 µM

Value lookup for GI50; key = `COc1cccc(-c2cc(-c3cccc(NS(C)(=O)=O)c3)nc(N)c2C#N)c1O`
0.471 µM

Value lookup for GI50; key = `CN(C)c1ccc(/C=C\C2=[N+](C)c3ccccc3C2(C)C)cc1`
1.5 µM

Value lookup for GI50; key = CC1CCC(n2c3cnccc3c3cnc(Nc4ccc5c(n4)CCN(C(=O)CO)C5)nc32)CC1 (centres undefined)
> 100 µM

Value lookup for GI50; key = `Nc1c(C(=O)c2cccc(CCS(N)(=O)=O)c2)cnn1-c1ccc(F)cc1`
> 25 µM

Value lookup for GI50; key = CCOC1Oc2ccccc2C(=O)/C1=C/Nc1ccc(C(C)=O)cc1 (centres undefined)
19.7 µM

* * *

Items are presented alongside their recorded TGI.
System: SNB-75 CNS
Experiment: NCI tumour cell line growth inhibition, 48 h

Some entries whose results are on file:
Value lookup for TGI; key = `O=C1/C(=C/c2ccccc2)N=C2Sc3c(nc[nH]c3=O)N12`
> 100 µM

Value lookup for TGI; key = `C=CCOc1ccc2c(C)cc(=O)oc2c1C`
> 100 µM

Value lookup for TGI; key = `CN(C)N=Nc1ccc(C(N)=O)cc1`
> 100 µM

Value lookup for TGI; key = `O=C(CCNC12CC3CC(CC(C3)C1)C2)c1ccccc1`
65.3 µM

Further cases:
Value lookup for TGI; key = `c1csc(-c2ccc(-c3cccc4nsnc34)s2)c1`
> 100 µM

Value lookup for TGI; key = `CCn1c(C)nn2c(=O)c3ccccc3nc2c1=O`
> 100 µM

Value lookup for TGI; key = `COc1ccc2cc(NC(=O)N/N=C\c3ccc([N+](=O)[O-])cc3)ccc2c1`
65.4 µM

Value lookup for TGI; key = `CCOC(=O)c1cn2c(n1)sc1cccc(C)c12`
> 100 µM

Value lookup for TGI; key = `CCOC(=O)C(C)(C)Oc1ccc2c(-c3ccccc3)cc(=O)oc2c1`
56.5 µM

Value lookup for TGI; key = `Cc1cc(-c2nc(C(=O)Nc3cc4oc(N5CCOCC5)nc4nc3N3CC[C@@H](O)C3)co2)ccn1`
69.2 µM

Value lookup for TGI; key = `CN(C)c1ccc(/C=C\C2=[N+](C)c3ccccc3C2(C)C)cc1`
19.9 µM

Value lookup for TGI; key = `O=C(Nc1ccccc1)c1c(O)[nH]c(=S)[nH]c1=O`
91.9 µM

Value lookup for TGI; key = C[N+](C)(C)CC(=O)N/N=C(/CC(=O)CC(C1=C(O)c2ccccc2OC1)c1ccccc1)C(=O)Nc1cccc(Cl)c1 (configuration not stated)
> 100 µM

Value lookup for TGI; key = O=C1/C(=C\c2ccccc2)C(NC2CCCCC2)c2ccccc21 (configuration not stated)
4.45 µM

Value lookup for TGI; key = `c1ccc(N=c2sc3ccccc3nc2Nc2ccccc2)cc1`
> 100 µM

Value lookup for TGI; key = `NC(N)=NS(=O)(=O)c1ccc(Nc2c3ccccc3nc3c(C(=O)NCCO)cccc23)cc1`
55.2 µM

Value lookup for TGI; key = `Cc1n[nH]c(=O)n1/N=C/c1ccc(Cl)cc1`
> 100 µM

Value lookup for TGI; key = `COc1cccc(-c2cc(-c3cccc(NS(C)(=O)=O)c3)nc(N)c2C#N)c1O`
5.15 µM

Value lookup for TGI; key = `Cc1ccc(C(=O)O)cc1S(=O)(=O)Nn1cnc2ccc(S(=O)(=O)Nc3ccccc3C(=O)O)cc2c1=O`
> 100 µM

Value lookup for TGI; key = `Cc1ccc(N=NC(=Nc2ccccc2)c2ccc(N(CCC#N)CCC#N)cc2)cc1`
> 100 µM

Value lookup for TGI; key = `COc1ccc2c(c1)sc1nc(-c3ccccc3)c(-c3cccc4ccccc34)n12`
> 100 µM

Value lookup for TGI; key = CN1CCc2cc(N)cc3c2C1Cc1ccc(O)c(O)c1-3 (configuration not stated)
> 100 µM

Value lookup for TGI; key = `CC1(C)N=[N+]([O-])C1(C)C`
> 100 µM

Value lookup for TGI; key = `O=C(CCc1nc(=S)[nH][nH]1)Nc1ccc(Cl)c(Cl)c1`
75.5 µM

Value lookup for TGI; key = `ClCCN1CCC2(CC1)SSC1(CCN(CCCl)CC1)S2`
> 100 µM

Value lookup for TGI; key = CCOC(=O)C(SCCO)C(C(=O)OCC)n1cnc2c(=O)[nH]c(NC(C)=O)nc21 (configuration not stated)
> 100 µM

Value lookup for TGI; key = CCCC1C(=O)CCc2c(OC)ccc(OC)c21 (configuration not stated)
> 100 µM

Value lookup for TGI; key = `O=C(Nc1ccc(F)cc1)Nc1ccc(Cl)c([N+](=O)[O-])c1`
> 100 µM

Value lookup for TGI; key = O=C1CC(NC(=O)C(F)(F)F)c2c(Br)sc(N3CCNCC3)c21 (configuration not stated)
> 100 µM

Value lookup for TGI; key = `FC(F)(F)c1cccc(Nc2nc(-c3ccccc3)nc3ncccc23)c1`
31.3 µM
